Experiment: Highest frequency of moderate liver toxicity observed during clinical trials, expressed as a percentage. [column '% BIOL' in source]
Details: human
One threshold, 10%, splits the recorded Hepatotoxicity (moderate) values: lower ones are satisfied, equal or higher ones are not satisfied.

Example results:
CN1CCC(=C2c3ccccc3C=Cc3ccccc32)CC1 :: satisfied
CC1(C)S[C@@H]2[C@H](NC(=O)[C@H](NC(=O)N3CCNC3=O)c3ccccc3)C(=O)N2[C@H]1C(=O)O :: not satisfied
CC(Cc1ccccc1)(NC(=O)CN)c1ccccc1 (stereo not drawn) [REMACEMIDE] :: satisfied
CC(NN)c1ccccc1 (stereo not drawn) :: satisfied
Cc1nc(C)c2c(n1)N(Cc1ccc(-c3ccccc3-c3nnn[nH]3)cc1)C(=O)CC2 :: satisfied

From here, focus on the item given below.
Strictly below 10% in Hepatotoxicity (moderate)? CC(C)c1c(C(=O)Nc2ccccc2)c(-c2ccccc2)c(-c2ccc(F)cc2)n1CC[C@@H](O)C[C@@H](O)CC(=O)O
not satisfied

====

Experiment: Highest frequency of acute liver toxicity observed during clinical trials, expressed as a percentage. [column '% AIGUE' in source]
Conditions: human
measured quantity: Hepatotoxicity (acute) (%)
# unit: % | format: bare number

CC(=O)Oc1cccc2c1C(=O)c1c(OC(C)=O)cc(C(=O)O)cc1C2=O [DIACEREIN] :: 0
ClC=C(Cl)Cl [TRICHLOROETHYLENE] :: 0
N[C@@H](C(=O)N[C@@H]1C(=O)N2C(C(=O)O)=C(Cl)CC[C@H]12)c1ccccc1 [LORACARBEF ANHYDROUS] :: 0
CC[C@@H](CO)NC(=O)[C@@H]1C=C2c3cccc4[nH]cc(c34)C[C@H]2N(C)C1 [METHYLERGONOVINE] :: 0
NCCS [CYSTEAMINE] :: 0
C[C@]12CC[C@@H]3c4ccc(OS(=O)(=O)O)cc4CC[C@H]3[C@@H]1CCC2=O [ESTRONE SULFURIC ACID] :: 0
CN1C(C(=O)Nc2ccccn2)=C(O)c2ccccc2S1(=O)=O [PIROXICAM] :: 0.8
COc1ccc(Cc2nccc3cc(OC)c(OC)cc23)cc1OC [PAPAVERINE] :: 3.3
Oc1ncnc2[nH]ncc12 [ALLOPURINOL] :: 0.1
O=c1[nH]cnc2c1ncn2[C@H]1CC[C@@H](CO)O1 [DIDANOSINE] :: 12.5

Recorded Hepatotoxicity (acute) for O=c1[nH]cc(F)c(=O)[nH]1 [FLUOROURACIL] , please?
25

// query Hepatotoxicity (acute) value for entry C[C@@H](O)[C@H]1C(=O)N2C(C(=O)O)=C([C@H]3CCCO3)S[C@H]12 [FAROPENEM]
0

Value lookup for Hepatotoxicity (acute); key = CNC(=O)OCc1cccc(COC(=O)NC)n1 [PYRICARBATE]
0.7

May I ask what Hepatotoxicity (acute) has been recorded for C[C@H](CCC(=O)O)[C@H]1CC[C@H]2[C@@H]3[C@@H](O)C[C@@H]4C[C@H](O)CC[C@]4(C)[C@H]3CC[C@]12C [URSODIOL] ?
0

Request the reported Hepatotoxicity (acute) associated with CCCN1CCO[C@@H]2c3cc(O)ccc3CC[C@H]21 [NAXAGOLIDE]
0

If you can, please state the reported Hepatotoxicity (acute) value of CC1=C(C/C=C(\C)CCC[C@H](C)CCC[C@H](C)CCCC(C)C)C(=O)c2ccccc2C1=O [PHYTONADIONE] .
0

Entry COc1ccc(Cl)cc1C(=O)NCCc1ccc(S(=O)(=O)NC(=O)NC2CCCCC2)cc1 [GLYBURIDE] has what Hepatotoxicity (acute)?
0

Report Hepatotoxicity (acute) for C[C@@H]1O[C@@H]1P(=O)(O)O [FOSFOMYCIN] please.
0

Which measured Hepatotoxicity (acute) value corresponds to CCC[C@@H]1C[C@@H](C(=O)N[C@@H]([C@H]2O[C@H](SC)[C@H](O)[C@@H](O)[C@H]2O)[C@@H](C)O)N(C)C1 [LINCOMYCIN] ?
0

Item O=P(O)(O)C(Sc1ccc(Cl)cc1)P(=O)(O)O [TILUDRONIC ACID] has what recorded Hepatotoxicity (acute)?
0

Quick one: Hepatotoxicity (acute) for CCCc1c2oc(C(=O)O)cc(=O)c2cc2c(=O)cc(C(=O)O)n(CC)c12 [NEDOCROMIL] ?
0

Record request: Hepatotoxicity (acute) value, item CO/N=C(\C(=O)N[C@@H]1C(=O)N2C(C(=O)OCOC(=O)C(C)(C)C)=C(/C=C\c3scnc3C)CS[C@H]12)c1csc(N)n1 [CEFDITOREN PIVOXIL]
0

Could you share which Hepatotoxicity (acute) value was measured for N[C@@H](CSCC(=O)O)C(=O)O [CARBOCYSTEINE] ?
0

====

Measured Hepatotoxicity (choleostasis), listed per entry.
Conditions: human

Find the recorded Hepatotoxicity (choleostasis) belonging to CCCc1c2oc(C(=O)O)cc(=O)c2cc2c(=O)cc(C(=O)O)n(CC)c12 [NEDOCROMIL] and report it.
0

Bench note: what Hepatotoxicity (choleostasis) did O=NN(CCCl)C(=O)NC1CCCCC1 [LOMUSTINE] show?
2

Would you kindly share the measured Hepatotoxicity (choleostasis) for CN(C)[C@@H]1C(O)=C(C(N)=O)C(=O)[C@@]2(O)C(O)=C3C(=O)c4c(O)ccc(Cl)c4[C@@H](O)[C@H]3C[C@@H]12 [DEMECLOCYCLINE] ?
0

Sample CC(C)(C)NCC(O)c1cc(O)cc(O)c1 (configuration not stated) [TERBUTALINE] — what was its Hepatotoxicity (choleostasis)?
0

Could you share which Hepatotoxicity (choleostasis) value was measured for COc1cc(NCc2ccc3nc(N)nc(N)c3c2C)cc(OC)c1OC [TRIMETREXATE] ?
0

Entry CC1(C)[C@@H](OC(=O)CCC(=O)O)CC[C@]2(C)[C@H]3C(=O)C=C4[C@@H]5C[C@@](C)(C(=O)O)CC[C@]5(C)CC[C@@]4(C)[C@]3(C)CC[C@@H]12 [CARBENOXOLONE] : reported Hepatotoxicity (choleostasis) = ?
0

Can you look up the measured Hepatotoxicity (choleostasis) of CC(=O)CC(c1ccccc1)c1c(O)c2ccccc2oc1=O (configuration not stated) [WARFARIN] for me?
5

====

Consider the following compounds and their measured Hepatotoxicity (chronic liver disease) readings.
Details: human, serum, 4383 h
Lab note: jot the number down without any unit.

N=C(N)NC(=O)c1nc(Cl)c(N)nc1N [AMILORIDE] :: 0
CCC1=C[C@@H]2CN(C1)Cc1c([nH]c3ccccc13)[C@@](C(=O)OC)(c1cc3c(cc1OC)N(C)[C@H]1[C@@](O)(C(=O)OC)[C@H](OC(C)=O)[C@]4(CC)C=CCN5CC[C@]31[C@@H]54)C2 :: 0

Let us examine a further case.
Fill in the blank: the reported Hepatotoxicity (chronic liver disease) of NC[C@H]1O[C@H](O[C@H]2[C@H](O)[C@@H](O[C@H]3O[C@H](CO)[C@@H](O)[C@H](N)[C@H]3O)[C@H](N)C[C@@H]2N)[C@H](N)C[C@@H]1O is ____.
0

====

Assay: Highest frequency of moderate liver toxicity observed during clinical trials, expressed as a percentage. [column '% BIOL' in source]
Settings: human
hey, just use True if measured Hepatotoxicity (moderate) is less than 10%, otherwise False

CNCCNc1ccc2c3c(nn2CCNCCO)-c2c(O)ccc(O)c2C(=O)c13 [TELOXANTRONE] :: False

Bench note: check whether CN(C)CCCN1c2ccccc2CCc2ccc(Cl)cc21 [CLOMIPRAMINE] shows Hepatotoxicity (moderate) below 10%
False

Just wondering, is Hepatotoxicity (moderate) of COC(=O)c1nc2cc(Cl)c3cccnc3c2o1 [QUAZOLAST] below 10%?
False

Say whether its Hepatotoxicity (moderate) is strictly beneath 10%. Entry: CC1CN(c2cc3c(cc2F)c(=O)c(C(=O)O)cn3-c2ccc(F)cc2F)CCN1 (configuration not stated) [TEMAFLOXACIN]
False

Answer whether the molecule NS(=O)(=O)c1cc(C(=O)O)cc(N2CCCC2)c1Oc1ccccc1 [PIRETANIDE] has Hepatotoxicity (moderate) strictly less than 10%
True

In plain terms, does O=C(O)CCCCCCNC1c2ccccc2CCc2ccccc21 [AMINEPTINE] come in under 10% for Hepatotoxicity (moderate)?
True

Given CO[C@@]1(NC(=O)CSC(F)F)C(=O)N2C(C(=O)O)=C(CSc3nnnn3CCO)CO[C@@H]21 [FLOMOXEF] , is recorded Hepatotoxicity (moderate) strictly lower than 10%?
False

Is it true that Hepatotoxicity (moderate) reported for CN(C)CCCC1(c2ccc(F)cc2)OCc2cc(C#N)ccc21 (configuration not stated) [CITALOPRAM] is less than 10%?
True

====

Settings: human, serum
measured quantity: Hepatotoxicity (moderate)
The response must contain the number and no unit.

CC(C)(C)NC(=O)[C@H]1CC[C@H]2[C@@H]3CC[C@H]4NC(=O)C=C[C@]4(C)[C@H]3CC[C@]12C [FINASTERIDE] :: 1
CSc1nc2cc(Cl)c(Oc3cccc(Cl)c3Cl)cc2[nH]1 [TRICLABENDAZOLE] :: 0
Cc1cn([C@H]2C=C[C@@H](CO)O2)c(=O)[nH]c1=O [STAVUDINE] :: 13

So what's the measured Hepatotoxicity (moderate) for this one? CO/N=C(\C(=O)N[C@@H]1C(=O)N2C(C(=O)[O-])=C(C[N+]3(C)CCCC3)CS[C@H]12)c1csc(N)n1
52
